Provenance of the data: ChEMBL document CHEMBL1201862

# Tested on: OVCAR-8
# test_summary: NCI tumour cell line growth inhibition, 48 h
Active and inactive are the calls of the source. Cut-off read from the data, not from the text of the source: active = GI50 up to about 1.1 µM and inactive = higher.
assay_endpoint: GI50

[in] Reported GI50 for Cc1ccccc1NC(=O)CC(=O)NNCC(=O)Nc1nnc(-c2ccccc2)s1 : what is it?
[out] 54.2 µM (inactive)

[in] Reported GI50 for Cn1cnc(N2CCCC2)c(C#N)c1=O : what is it?
[out] > 100 µM (inactive)

***
[in] Reported GI50 for CC(C)=Cc1cc2c(cc1O)CCC1C2CC[C@@]2(C)C1CC[C@@H]2O (stereo partly specified) : what is it?
[out] 17.9 µM (inactive)

[in] Reported GI50 for C/C=C1\CN2CCc3c([nH]c4ccccc34)C2CC1CCO (stereo unspecified) : what is it?
[out] > 100 µM (inactive)

[in] Reported GI50 for C#CCOCC12C=CC(O1)C1COC(=O)C12 (stereo unspecified) : what is it?
[out] > 100 µM (inactive)

[in] Reported GI50 for O=c1[nH]cc(COCCO)c(=O)[nH]1 : what is it?
[out] > 100 µM (inactive)

[in] Reported GI50 for N#Cc1c(O)cc(=O)n2c1[nH]c1ccccc12 : what is it?
[out] > 100 µM (inactive)

[in] Reported GI50 for CCCCCCCCP(=O)(O)OP(=O)(O)OCC1OC(n2ccc(N)nc2=O)C(O)C1O (stereo unspecified) : what is it?
[out] > 100 µM (inactive)

###

Listed next: entries and their corresponding GI50.
# Test system: TK-10
# test_summary: NCI tumour cell line growth inhibition, 48 h
Activity calls are given as the source filed them. Rule as the data show it: active = GI50 up to about 1.1 µM and inactive = higher.

Some entries whose results are on file:
[in] Reported GI50 for CCOC(=O)/C=C/[C@H](O)[C@@H](O)/C=C/C(=O)OCC : what is it?
[out] 55.8 µM (inactive)

[in] Reported GI50 for CC(=O)OCC1OC(n2c3c(cc(C#N)c2=S)CCCC3)C(OC(C)=O)C(OC(C)=O)C1OC(C)=O (stereo not given) : what is it?
[out] > 100 µM (inactive)

[in] Reported GI50 for COCCCN(Cc1cc(OC)c(OC)c(OC)c1)C(=S)Nc1cccc(Cl)c1 : what is it?
[out] 47 µM (inactive)

[in] Reported GI50 for Cc1ccccc1C1=C(C(=O)Nc2ccc(Cl)c(Cl)c2)NC(=S)NC1N (stereo not given) : what is it?
[out] > 100 µM (inactive)

***
[in] Reported GI50 for N#CCCN(CCC#N)c1ccc(/C=C2\N=C(c3ccccc3)N(NC(N)=S)C2=O)cc1 : what is it?
[out] > 100 µM (inactive)

###

Listed next: entries and their corresponding GI50.
# System: COLO 205
# test_summary: NCI tumour cell line growth inhibition, 48 h
Calls of active or inactive are those of the source. No stated cut-off is given here; in the data, active = GI50 up to about 1.1 µM and inactive = higher.

Some entries whose results are on file:
[in] Reported GI50 for Cn1c(=O)c(C(c2ccc([N+](=O)[O-])cc2)c2c(O)c3ccccc3n(C)c2=O)cc2ccccc21 (stereo unspecified) : what is it?
[out] 32.7 µM (inactive)

[in] Reported GI50 for Cc1c(C(=O)O)n2c(C)nnc2c2ccccc12 : what is it?
[out] > 100 µM (inactive)

Here is another compound to look at.
[in] Reported GI50 for CC(=O)C(CN(CC(C)C)CC(C)C)C(c1ccccc1)c1c(O)c2ccccc2oc1=O (stereo unspecified) : what is it?
[out] > 100 µM (inactive)
